B1: ANKRD17 (parent)
chain: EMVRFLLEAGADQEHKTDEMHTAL

# Variants of: B1
# Assay Method Text: protein stability index of a GFP-peptide fusion (GPS, HEK-293T) (PSI 1-6); higher = more stable;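 further: lentivirally expressed fusions sorted by FACS into six bins by GFP to DsRed ratio, PSI derived from sequencing read proportions per bin multiplied by bin number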
# Test Context: c terminus: a fixed tail appended
Note to self: class labels come from recorded protein stability index, ranges listed here: band A (below 2), band B (2 to below 3), band C (3 or more)

E19K
band A
L7A
band C
A23T
band B
A9G
band B
T22K
band B
E1C
band B
G10K
band B
E19Q
band A

We now examine a further variant.
### Prompt # classify by protein stability index band: `F5P`
### Response band C
